# Test system: Pseudomonas aeruginosa
# ASSAY NAME: MIC of antibiotics by microdilution in liquid medium on plates (Example 18)
# Assay type: cell-based
# TEST CONDITIONS: Pseudomonas aeruginosa, alone; strain lic R βLac^+ TEM; read-out: MIC (average MIC value)
READOUT TYPE: MIC (µg/mL)

INSERT INTO measurements (compound, reported_measurement) VALUES
  ('CO/N=C(\C(=O)N[C@@H]1C(=O)N2C(C(=O)O)=C(COC(C)=O)CS[C@H]12)c1csc(N)n1 [CEFOTAXIME, cefotaxime]', 32),
  ('CC1(C)S[C@@H]2[C@H](NC(=O)[C@H](NC(=O)N3CCNC3=O)c3ccccc3)C(=O)N2[C@H]1C(=O)O [AZLOCILLIN, azlocillin]', 64),
  ('CO/N=C(\C(=O)N[C@@H]1C(=O)N2C(C(=O)O)=C(CSc3nc(=O)c(=O)[nH]n3C)CS[C@H]12)c1csc(N)n1 [CEFTRIAXONE, ceftriaxone]', 32),
  ('CC1(C)S[C@@H]2[C@H](NC(=O)[C@H](NC(=O)c3cnc4cccnc4c3O)c3ccccc3)C(=O)N2[C@H]1C(=O)O [APALCILLIN, apalcillin]', 16),
  ('CC1(C)S[C@@H]2[C@H](NC(=O)[C@H](C(=O)O)c3ccsc3)C(=O)N2[C@H]1C(=O)O [ticarcillin]', 1020),
  ('CCN1CCN(C(=O)N[C@@H](C(=O)N[C@@H]2C(=O)N3[C@@H]2SC(C)(C)[C@@H]3C(=O)O)c2ccccc2)C(=O)C1=O [PIPERACILLIN, piperacillin]', 64),
  ('CCN1CCN(C(=O)N[C@@H](C(=O)N[C@@H]2C(=O)N3C(C(=O)O)=C(CSc4nnnn4C)CS[C@H]23)c2ccc(O)cc2)C(=O)C1=O [CEFOPERAZONE, cefoperazone]', 32),
  ('NC(=O)c1cc[n+](CC2=C(C(=O)O)N3C(=O)[C@@H](NC(=O)[C@@H](c4ccccc4)S(=O)(=O)[O-])[C@H]3SC2)cc1 [CEFSULODIN, cefsulodin]', 32);

---

# System: Pseudomonas aeruginosa
# ASSAY NAME: MIC of antibiotics by microdilution in liquid medium on plates (Example 18)
# Format: cell-based
# TEST CONDITIONS: Pseudomonas aeruginosa, + LiF 1 mg/l; strain lic S βLac^- (first column); read-out: MIC (average MIC value)
READOUT TYPE: MIC (µg/mL)

INSERT INTO assay_data (query_smiles, reported_measurement) VALUES
  ('CC1(C)S[C@@H]2[C@H](NC(=O)[C@H](NC(=O)c3cnc4cccnc4c3O)c3ccccc3)C(=O)N2[C@H]1C(=O)O', 2),
  ('CCN1CCN(C(=O)N[C@@H](C(=O)N[C@@H]2C(=O)N3C(C(=O)O)=C(CSc4nnnn4C)CS[C@H]23)c2ccc(O)cc2)C(=O)C1=O', 4),
  ('NC(=O)c1cc[n+](CC2=C(C(=O)O)N3C(=O)[C@@H](NC(=O)[C@@H](c4ccccc4)S(=O)(=O)[O-])[C@H]3SC2)cc1', 4),
  ('CCN1CCN(C(=O)N[C@@H](C(=O)N[C@@H]2C(=O)N3[C@@H]2SC(C)(C)[C@@H]3C(=O)O)c2ccccc2)C(=O)C1=O', 8),
  ('CO/N=C(\C(=O)N[C@@H]1C(=O)N2C(C(=O)O)=C(CSc3nc(=O)c(=O)[nH]n3C)CS[C@H]12)c1csc(N)n1', 8),
  ('CC1(C)S[C@@H]2[C@H](NC(=O)[C@H](NC(=O)N3CCNC3=O)c3ccccc3)C(=O)N2[C@H]1C(=O)O', 4),
  ('CO/N=C(\C(=O)N[C@@H]1C(=O)N2C(C(=O)O)=C(COC(C)=O)CS[C@H]12)c1csc(N)n1', 8);

---

# System: Pseudomonas aeruginosa
# ASSAY NAME: MIC of antibiotics by microdilution in liquid medium on plates (Example 18)
# Type: cell-based
# TEST CONDITIONS: Pseudomonas aeruginosa, + LiF 1 mg/l; strain lic R βLac^+ OXA; read-out: MIC (average MIC value)
The following molecules are listed with their measured MIC values.
READOUT TYPE: MIC (µg/mL)

INSERT INTO measurements (query_smiles, reported_measurement) VALUES
  ('CO/N=C(\C(=O)N[C@@H]1C(=O)N2C(C(=O)O)=C(CSc3nc(=O)c(=O)[nH]n3C)CS[C@H]12)c1csc(N)n1', 32),
  ('CO/N=C(\C(=O)N[C@@H]1C(=O)N2C(C(=O)O)=C(COC(C)=O)CS[C@H]12)c1csc(N)n1', 16),
  ('CC1(C)S[C@@H]2[C@H](NC(=O)[C@H](NC(=O)N3CCNC3=O)c3ccccc3)C(=O)N2[C@H]1C(=O)O', 64),
  ('CCN1CCN(C(=O)N[C@@H](C(=O)N[C@@H]2C(=O)N3[C@@H]2SC(C)(C)[C@@H]3C(=O)O)c2ccccc2)C(=O)C1=O', 64);

---

The following compounds are listed with their measured MIC values.
# Tested on: Pseudomonas aeruginosa
# ASSAY NAME: MIC of antibiotics by microdilution in liquid medium on plates (Example 18)
# Assay type: cell-based
# TEST CONDITIONS: Pseudomonas aeruginosa, alone; strain lic R βLac^+ PSE; read-out: MIC (average MIC value)
READOUT TYPE: MIC (µg/mL)

INSERT INTO measurements (compound, reported_measurement) VALUES
  ('CO/N=C(\C(=O)N[C@@H]1C(=O)N2C(C(=O)O)=C(CSc3nc(=O)c(=O)[nH]n3C)CS[C@H]12)c1csc(N)n1 [CEFTRIAXONE, ceftriaxone]', 32),
  ('CO/N=C(\C(=O)N[C@@H]1C(=O)N2C(C(=O)O)=C(COC(C)=O)CS[C@H]12)c1csc(N)n1 [CEFOTAXIME, cefotaxime]', 32),
  ('CC1(C)S[C@@H]2[C@H](NC(=O)[C@H](NC(=O)c3cnc4cccnc4c3O)c3ccccc3)C(=O)N2[C@H]1C(=O)O [APALCILLIN, apalcillin]', 64),
  ('NC(=O)c1cc[n+](CC2=C(C(=O)O)N3C(=O)[C@@H](NC(=O)[C@@H](c4ccccc4)S(=O)(=O)[O-])[C@H]3SC2)cc1 [CEFSULODIN, cefsulodin]', 32),
  ('CC1(C)S[C@@H]2[C@H](NC(=O)[C@H](C(=O)O)c3ccsc3)C(=O)N2[C@H]1C(=O)O [ticarcillin]', 4100),
  ('CCN1CCN(C(=O)N[C@@H](C(=O)N[C@@H]2C(=O)N3C(C(=O)O)=C(CSc4nnnn4C)CS[C@H]23)c2ccc(O)cc2)C(=O)C1=O [CEFOPERAZONE, cefoperazone]', 64),
  ('CC1(C)S[C@@H]2[C@H](NC(=O)[C@H](NC(=O)N3CCNC3=O)c3ccccc3)C(=O)N2[C@H]1C(=O)O [AZLOCILLIN, azlocillin]', 64),
  ('CCN1CCN(C(=O)N[C@@H](C(=O)N[C@@H]2C(=O)N3[C@@H]2SC(C)(C)[C@@H]3C(=O)O)c2ccccc2)C(=O)C1=O [PIPERACILLIN, piperacillin]', 128);

---

The following compounds are listed with their measured MIC values.
# System: Pseudomonas aeruginosa
# ASSAY NAME: MIC of antibiotics by microdilution in liquid medium on plates (Example 18)
# Assay type: cell-based
# TEST CONDITIONS: Pseudomonas aeruginosa, + LiF 1 mg/l; strain lic R βLac^+ OXA; read-out: MIC (average MIC value)
READOUT TYPE: MIC (µg/mL)

INSERT INTO results (query_smiles, readout_type, value_units, reported_measurement) VALUES
  ('CCN1CCN(C(=O)N[C@@H](C(=O)N[C@@H]2C(=O)N3C(C(=O)O)=C(CSc4nnnn4C)CS[C@H]23)c2ccc(O)cc2)C(=O)C1=O', 'MIC', 'µg/mL', 64),
  ('NC(=O)c1cc[n+](CC2=C(C(=O)O)N3C(=O)[C@@H](NC(=O)[C@@H](c4ccccc4)S(=O)(=O)[O-])[C@H]3SC2)cc1', 'MIC', 'µg/mL', 16),
  ('CC1(C)S[C@@H]2[C@H](NC(=O)[C@H](NC(=O)c3cnc4cccnc4c3O)c3ccccc3)C(=O)N2[C@H]1C(=O)O', 'MIC', 'µg/mL', 32);
